Please respond with reported GI50 for every item in the list.
System: SF-539
protocol_text: NCI tumour cell line growth inhibition, 48 h
Activity calls are given as the source filed them. Cut-off read from the data, not from the text of the source: active = GI50 up to about 1.1 µM and inactive = higher.

Guide cases for GI50, answers given:
> print(dat)
                                   molecule  assay.target               result
1  O=[N+]([O-])C(=C(Nc1ccccc1)Nc1ccccc1)C(Cl)=C(Cl)Cl        SF-539   20.2 µM (inactive)
2  C=C1CC23CCC4C(C)(C(=O)O)CCCC4(C)C2CCC1C3 (stereo not given)        SF-539     74 µM (inactive)
3  COc1ccc(NC(C)=O)cc1N1C(=O)/C(=C\c2cc(OC)c(OC)c(OC)c2)SC1c1ccccc1 (stereo not given)        SF-539   64.6 µM (inactive)
4  Cc1ccc(S(=O)(=O)CC(=O)CC(=O)C(=O)Nc2cccc(C(F)(F)F)c2)cc1        SF-539  > 100 µM (inactive)

Please look at the following molecule next.
Prompt: Please report the recorded GI50 for `O=C1NC(=O)[C@H]2C3C=CC([C@@H]12)[C@@H]1C(=O)NC(=O)[C@H]31` .
Completion: > 100 µM (inactive)

Values from ChEMBL document CHEMBL1201862
